B1: Hairpin Ribozyme (parent)
chain: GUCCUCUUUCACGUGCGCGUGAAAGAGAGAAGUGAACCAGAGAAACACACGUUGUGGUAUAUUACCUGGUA

- Variants of: B1
- assayDetails: self-cleavage, relative activity (ratio to wild type); higher = more cleavage; co-transcriptional
outcomeMeasure: self-cleavage

Below: 3 variants and their reported self-cleavage.
C16G G40A = 0.198
G27C A49C = 0.203
U8G A11C = 0.512

Next variant, please.
G1A G29C has a reported self-cleavage of 0.196
